Items are presented alongside their recorded LD50.
ASSAY_NOTES: LD50 (acute toxicity)
Design: species or system mice
CONDITIONS: mouse, in vivo; intravenous; read-out: LD50 when dosed intravenously

structure_as_smiles=CC(=O)Oc1cccc2c1Oc1cc(Cl)ccc1C21CCN(C)CC1 recorded_endpoint=LD50 observed_measurement="> 35 mg/kg"
structure_as_smiles=CN1CCC2(CC1)c1cccc(O)c1Oc1cccc(F)c12 recorded_endpoint=LD50 observed_measurement="> 20 mg/kg"
structure_as_smiles=CN1CCC2(CC1)c1ccc(Cl)cc1Oc1c(O)cccc12 recorded_endpoint=LD50 observed_measurement="> 25 mg/kg"
structure_as_smiles=COc1ccc2c(c1)Oc1c(OC(C)=O)cccc1C21CCN(C)CC1 recorded_endpoint=LD50 observed_measurement="> 20 mg/kg"

Alright, here's another molecule for you.
Q: Give the measured LD50 of `CSc1ccc2c(c1)Oc1c(OC(C)=O)cccc1C21CCN(C)CC1` .
Ans: > 40 mg/kg
